Listed below: IC50 values for each entry.
Target: human recombinant SSAO/VAP-1 (Homo sapiens, UniProt Q16853)
Construct: a cloned cDNA template corresponding to residues 34-763 of human SSAO/VAP-1; TEV cleavage site (N)
Sequence (Q16853 34-763): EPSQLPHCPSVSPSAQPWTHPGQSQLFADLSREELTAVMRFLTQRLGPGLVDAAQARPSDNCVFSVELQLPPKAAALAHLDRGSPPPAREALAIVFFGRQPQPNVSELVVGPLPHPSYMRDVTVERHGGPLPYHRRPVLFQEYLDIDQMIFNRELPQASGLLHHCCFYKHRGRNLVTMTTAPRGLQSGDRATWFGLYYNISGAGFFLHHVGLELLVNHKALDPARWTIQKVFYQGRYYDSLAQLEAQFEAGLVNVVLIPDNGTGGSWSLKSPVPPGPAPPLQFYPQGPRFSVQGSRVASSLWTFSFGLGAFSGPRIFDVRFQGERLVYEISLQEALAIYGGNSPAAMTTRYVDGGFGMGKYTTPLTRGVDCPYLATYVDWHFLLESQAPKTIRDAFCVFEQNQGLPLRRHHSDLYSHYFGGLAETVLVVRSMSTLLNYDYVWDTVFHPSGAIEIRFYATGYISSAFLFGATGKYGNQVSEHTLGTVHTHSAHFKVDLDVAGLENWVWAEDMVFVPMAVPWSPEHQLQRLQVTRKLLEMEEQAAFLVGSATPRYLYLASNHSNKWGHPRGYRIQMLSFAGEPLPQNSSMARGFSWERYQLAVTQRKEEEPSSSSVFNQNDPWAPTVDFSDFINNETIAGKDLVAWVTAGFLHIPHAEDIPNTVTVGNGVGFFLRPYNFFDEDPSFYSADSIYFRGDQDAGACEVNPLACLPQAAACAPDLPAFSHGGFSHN
Experiment: Human recombinant SSAO/VAP-1 amine oxidase inhibition
Conditions: 30 min preincubation at 37° C., 600 μM benzylamine
Procedure: Method to Determine the Ability of Compounds of Formula I to Inhibit Human Recombinant SSAO/VAP-1 Human recombinant SSAO/VAP-1 amine oxidase activity was determined using the coupled colorimetric method as described for monoamine oxidase, copper-containing amine oxidases and related enzymes (Holt A. and Palcic M., A peroxidase-coupled continuous absorbance plate-reader assay for flavin monoamine oxidases, copper-containing amine oxidases and related enzymes. Nat Protoc 2006; 1: 2498-2505). […]
Counter-ions that a name gives are not always drawn.

# example entries with known answers
[[record]]
compound = "Cc1nn(C/C(F)=C/CN)c(C)c1Cc1ccc(S(=O)(=O)N(C)C(C)C)cc1 [Compound 8, hydrochloride]"
system_tested = "human recombinant SSAO/VAP-1 (Homo sapiens, UniProt Q16853)"
assay_result = "> 10 µM"

[[record]]
compound = "Cc1nn(C/C(F)=C/CN)c(C(=O)NC(C)(C)C)c1Cc1ccc(S(=O)(=O)N(C)C)c(Cl)c1 [Compound 62, hydrochloride]"
system_tested = "human recombinant SSAO/VAP-1 (Homo sapiens, UniProt Q16853)"
assay_result = "> 30 µM"

[[record]]
compound = "CNS(=O)(=O)c1ccc(Cn2nc(C)c(C/C(F)=C/CN)c2C)c(C(F)(F)F)c1 [Compound 23, hydrochloride]"
system_tested = "human recombinant SSAO/VAP-1 (Homo sapiens, UniProt Q16853)"
assay_result = "> 30 µM"

[[record]]
compound = "Cc1nn(C/C(F)=C/CN)c(C(=O)N(C)C)c1Cc1ccc(S(=O)(=O)N(C)C)cc1 [Compound 29, hydrochloride]"
system_tested = "human recombinant SSAO/VAP-1 (Homo sapiens, UniProt Q16853)"
assay_result = "> 30 µM"

[[record]]
compound = "Cc1nn(Cc2ccc(S(=O)(=O)N(C)C)cc2)c(C)c1C/C(F)=C/CN [Compound 10, hydrochloride]"
system_tested = "human recombinant SSAO/VAP-1 (Homo sapiens, UniProt Q16853)"
assay_result = "< 10 µM"


q: Param readout= IC50; system= human recombinant SSAO/VAP-1 (Homo sapiens, UniProt Q16853); entry= Cc1nn(C/C(F)=C/CN)c(C(=O)N(C)C)c1Cc1ccc(S(=O)(=O)N(C)C)c(Cl)c1 [Compound 61, hydrochloride] ; returns value.
a: > 30 µM

----------
Item-by-item account of IC50
target: Recombinant human MAO-B (Homo sapiens, UniProt P27338); experiment: Human recombinant MAO-B inhibition; conditions: benzylamine 100 μM
Sequence (P27338 whole entry): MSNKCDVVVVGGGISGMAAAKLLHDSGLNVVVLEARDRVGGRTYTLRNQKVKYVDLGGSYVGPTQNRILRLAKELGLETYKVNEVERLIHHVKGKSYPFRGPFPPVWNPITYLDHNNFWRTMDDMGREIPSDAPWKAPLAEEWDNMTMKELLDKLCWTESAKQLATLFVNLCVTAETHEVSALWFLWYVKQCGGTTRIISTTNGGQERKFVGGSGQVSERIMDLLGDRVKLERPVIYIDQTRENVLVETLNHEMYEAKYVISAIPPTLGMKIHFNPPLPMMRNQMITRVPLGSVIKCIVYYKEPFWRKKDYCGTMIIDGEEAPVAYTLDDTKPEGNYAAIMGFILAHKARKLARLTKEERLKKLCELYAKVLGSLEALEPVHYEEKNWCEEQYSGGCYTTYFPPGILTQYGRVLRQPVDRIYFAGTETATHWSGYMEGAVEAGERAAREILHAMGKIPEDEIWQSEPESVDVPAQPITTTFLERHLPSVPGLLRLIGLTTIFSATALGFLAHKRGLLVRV
Structures can show the parent of a compound that is named as a salt.

Illustrative cases are given below, each with its answer.
[[record]]
molecule = "Cc1nn(Cc2cc(F)c(S(=O)(=O)N(C)C)cc2F)c(C)c1C/C(F)=C/CN [Compound 25, hydrochloride]"
system_tested = "Recombinant human MAO-B (Homo sapiens, UniProt P27338)"
assay_result = "> 30 µM"

[[record]]
molecule = "Cc1nn(C/C(F)=C/CN)c(C)c1Cc1ccc(S(=O)(=O)N(C)C)cc1Cl [Compound 3, hydrochloride]"
system_tested = "Recombinant human MAO-B (Homo sapiens, UniProt P27338)"
assay_result = "> 30 µM"

[[record]]
molecule = "Cc1nn(C/C(F)=C/CN)c(C(=O)N(C)C)c1Cc1ccc(S(=O)(=O)N(C)C)cc1 [Compound 29, hydrochloride]"
system_tested = "Recombinant human MAO-B (Homo sapiens, UniProt P27338)"
assay_result = "> 30 µM"


q: Query (molecule): Cc1c(Cc2ccc(S(=O)(=O)N(C)C)cc2)c(C(=O)N(C)C)nn1C/C(F)=C/CN [Compound 32, hydrochloride] ; field requested: IC50
a: > 30 µM

q: Name the reported IC50 value associated with the molecule Cc1nn(C/C(F)=C/CN)c(C)c1Cc1ccc(S(=O)(=O)N(C)C)c(OC(F)(F)F)c1 [Compound 17, hydrochloride]
a: > 30 µM

q: What measured IC50 goes with N#CCCN [BAPN, β-aminopropionitrile, reference compound] ?
a: > 100 µM

----------
Catalogue of melting point readings, one per entry.
Where a name gives a salt, the structure may show the parent alone.

[[record]]
molecule = "Cc1nn(Cc2ccc(S(=O)(=O)N(C)C)cc2)c(C)c1C/C(F)=C/CN (as salt: hydrochloride)"
assay_result = "180 to 185 °C"


q: # get_value(readout='melting point', item= Cc1nn(C/C(F)=C/CN)c(C)c1Cc1ccc(S(=O)(=O)N(C)C)c2ccccc12 (as salt: hydrochloride) )
a: 70 to 80 °C

q: If you can, please state the reported melting point value of Cc1nn(C/C(F)=C/CN)c(C)c1Cc1ccc(S(=O)(=O)N2CCCC2)cc1 (as salt: hydrochloride) .
a: 181 to 184 °C

q: Requested field: melting point. Item: Cc1nn(C/C(F)=C/CN)c(C)c1Cc1ccc(S(=O)(=O)N(C)C)cc1Cl (as salt: hydrochloride)
a: 185 to 187 °C

----------
Structures can show the parent of a compound that is named as a salt.
MEASUREMENT NAME: melting point

Record excerpt, results attached:
[[record]]
compound = "CNS(=O)(=O)c1ccc(Cn2nc(C)c(C/C(F)=C/CN)c2C)c(C(F)(F)F)c1 (as salt: hydrochloride)"
assay_result = "171 to 172 °C"

[[record]]
compound = "CNS(=O)(=O)c1cc(F)c(Cn2nc(C)c(C/C(F)=C/CN)c2C)cc1F (as salt: hydrochloride)"
assay_result = "100 to 103 °C"


q: Recorded melting point for Cc1nn(C/C(F)=C/CN)c(C)c1Cc1ccc(S(=O)(=O)N2CCOCC2)cc1 (as salt: hydrochloride) , please?
a: 190 to 197 °C

q: Return reported melting point; argument: CCOC(=O)c1c(Cc2ccc(S(=O)(=O)N(C)C)cc2)c(C)nn1C/C(F)=C/CN (as salt: hydrochloride)
a: 157 to 159 °C

q: Look up melting point for this compound: Cc1nn(C/C(F)=C/CN)c(C(=O)O)c1Cc1ccc(S(=O)(=O)N(C)C)cc1 (as salt: hydrochloride)
a: 164 to 166 °C

q: Any idea what melting point was measured for Cc1c(Cc2ccc(S(=O)(=O)N(C)C)cc2)c(C(=O)O)nn1C/C(F)=C/CN (as salt: hydrochloride) ?
a: 262 to 264 °C

q: Need melting point of Cc1nn(C/C(F)=C/CN)c(C)c1Cc1ccc(S(C)(=O)=O)cc1 (as salt: hydrochloride) , thanks.
a: 127 to 137 °C

q: // melting point lookup, key: Cc1nn(Cc2ccc(S(C)(=O)=O)c(Cl)c2)c(C)c1C/C(F)=C/CN (as salt: hydrochloride)
a: 92 to 94 °C

q: So what does the record say about melting point for Cc1nn(C/C(F)=C/CN)c(C(=O)N(C)C)c1Cc1ccc(S(=O)(=O)N(C)C)cc1 (as salt: hydrochloride) ?
a: 77 to 80 °C

----------
target: human recombinant SSAO/VAP-1 (Homo sapiens, UniProt Q16853); construct: a cloned cDNA template corresponding to residues 34-763 of human SSAO/VAP-1; TEV cleavage site (N); experiment: Human recombinant SSAO/VAP-1 amine oxidase inhibition; settings: 30 min preincubation at 37° C., 600 μM benzylamine
pIC50: −log10 of the molar value. Structures can show the parent of a compound that is named as a salt.
MEASUREMENT NAME: pIC50

Worked set:
[[record]]
molecule = "N#CCCN [BAPN, β-aminopropionitrile, reference compound]"
system_tested = "human recombinant SSAO/VAP-1 (Homo sapiens, UniProt Q16853)"
assay_result = "< 4.00"

[[record]]
molecule = "Cc1nn(C/C(F)=C/CN)c(C)c1Cc1cc(F)c(S(=O)(=O)N(C)C)cc1F [Compound 19, hydrochloride]"
system_tested = "human recombinant SSAO/VAP-1 (Homo sapiens, UniProt Q16853)"
assay_result = "< 4.52"

[[record]]
molecule = "Cc1nn(C/C(F)=C/CN)c(C)c1Cc1ccc(S(=O)(=O)N2CCCC2)cc1 [Compound 7, hydrochloride]"
system_tested = "human recombinant SSAO/VAP-1 (Homo sapiens, UniProt Q16853)"
assay_result = "< 5.00"


q: Given CN(C)S(=O)(=O)c1ccc(-c2cnn(C/C(F)=C/CN)c2)cc1 [Compound 1, hydrochloride] , state its recorded pIC50.
a: > 5.00

----------
pIC50: −log10 of the molar value. Where a name gives a salt, the structure may show the parent alone.
The reader will find pIC50 measurements below, all made with UniProt P33072.
Sequence (P33072 170-418): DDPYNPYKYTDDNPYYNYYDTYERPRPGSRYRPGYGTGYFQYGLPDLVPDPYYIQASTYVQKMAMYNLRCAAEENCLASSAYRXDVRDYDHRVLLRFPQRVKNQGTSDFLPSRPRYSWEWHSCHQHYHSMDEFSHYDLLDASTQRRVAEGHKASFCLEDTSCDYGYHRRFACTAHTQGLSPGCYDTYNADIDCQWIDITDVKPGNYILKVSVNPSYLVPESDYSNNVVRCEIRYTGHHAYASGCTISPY

[[record]]
compound = "Cc1nn(C/C(F)=C/CN)c(C)c1Cc1ccc(S(=O)(=O)N(C)C)c(OC(F)(F)F)c1 [Compound 17, hydrochloride]"
system_tested = "UniProt P33072"
assay_result = "< 5.00"

[[record]]
compound = "Cc1c(Cc2ccc(S(=O)(=O)N(C)C)c(Cl)c2)c(C(C)C)nn1C/C(F)=C/CN [Compound 66, hydrochloride]"
system_tested = "UniProt P33072"
assay_result = "> 5.00"


q: Fill in: pIC50 of Cc1nn(C/C(F)=C/CN)c(C)c1Cc1cccc(S(=O)(=O)N(C)C)c1 [Compound 5, hydrochloride] is ___
a: < 5.00

q: // query pIC50 value for entry Cc1nn(Cc2ccc(S(C)(=O)=O)cc2Cl)c(C)c1C/C(F)=C/CN [Compound 21, hydrochloride]
a: > 5.00

q: Data request, read-out pIC50, for Cc1c(-c2cccc(S(=O)(=O)N(C)C)c2)c(Cl)nn1C/C(F)=C/CN [Compound 34, hydrochloride]
a: > 5.00

q: Report pIC50 for Cc1nn(C/C(F)=C/CN)c(C(=O)NC(C)(C)C)c1Cc1ccc(S(=O)(=O)N(C)C)c(Cl)c1 [Compound 62, hydrochloride] please.
a: > 5.00

q: Reported pIC50 for Cc1nn(C/C(F)=C/CN)c(C)c1Cc1ccc(S(=O)(=O)N2CCCC2)cc1 [Compound 7, hydrochloride] : what is it?
a: > 5.00
